biological target: D(2) dopamine receptor (Homo sapiens, UniProt P14416); assay: Displacement of [3H]spiperone from human dopamine D2 receptor in CHO cells; type: cell-based
Sequence (P14416 whole entry): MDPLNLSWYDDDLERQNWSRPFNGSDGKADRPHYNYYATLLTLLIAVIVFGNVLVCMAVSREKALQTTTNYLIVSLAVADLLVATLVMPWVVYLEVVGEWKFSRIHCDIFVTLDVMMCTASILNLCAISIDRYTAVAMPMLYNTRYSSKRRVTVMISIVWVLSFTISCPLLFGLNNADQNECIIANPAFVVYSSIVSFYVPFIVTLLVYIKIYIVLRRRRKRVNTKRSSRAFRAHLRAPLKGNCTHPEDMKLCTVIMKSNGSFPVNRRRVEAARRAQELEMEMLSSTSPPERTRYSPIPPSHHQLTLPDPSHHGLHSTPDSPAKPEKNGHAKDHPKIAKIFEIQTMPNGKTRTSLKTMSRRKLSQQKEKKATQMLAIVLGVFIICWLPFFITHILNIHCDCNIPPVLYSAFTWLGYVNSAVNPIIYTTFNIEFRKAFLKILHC
Ki strictly less than 600 nM = fulfilled. Otherwise not fulfilled.

| MOLECULE | LABEL |
| --- | --- |
| Clc1ccc(CN2CC=C(c3nc4ccccc4s3)CC2)cc1 | not fulfilled |
| Clc1ccc(CN2CC=C(c3nc4cc(Cl)ccc4[nH]3)CC2)cc1 | fulfilled |
| Clc1ccc2sc(C3=CCN(Cc4ccccc4)CC3)nc2c1 | not fulfilled |
| Clc1cccc(CN2CC=C(c3nc4ccccc4s3)CC2)c1 | fulfilled |
| C1=C(c2nc3ccccc3o2)CCN(Cc2ccccc2)C1 | fulfilled |
| Clc1ccc(CN2CC=C(c3nc4cc(Cl)ccc4s3)CC2)cc1 | not fulfilled |
| Clc1ccccc1CN1CC=C(c2nc3ccccc3s2)CC1 | not fulfilled |
| Clc1ccc(CN2CC=C(c3nc4ccccc4[nH]3)CC2)cc1 | not fulfilled |
| Clc1ccc(CN2CC=C(c3nc4cc(Cl)ccc4o3)CC2)cc1 | not fulfilled |
| C1=C(c2nc3ccccc3[nH]2)CCN(Cc2ccccc2)C1 | not fulfilled |

We now examine a further compound.
Dear reviewer, please state whether "Clc1ccc2oc(C3=CCN(Cc4ccccc4)CC3)nc2c1" has Ki strictly beneath 600 nM. not fulfilled

All figures here come from ChEMBL document CHEMBL1130515.
